# Tested on: Mycosphaerella graminicola; Anamorph: Septoria tritici; Bayer Code SEPTTR
# MEASUREMENT_DESCRIPTION: Leaf blotch of wheat, foliar fungicide treatment, one day protectant (1DP) or three day curative (3DC)
# Format: in vivo, Septoria tritici on wheat plants (variety Yuma)
# REPORTED_CONDITIONS: Zymoseptoria tritici, 72 h, three day curative (3DC), 25 ppm, percent control rating, read-out: SEPTTR 3DC 25 ppm
PROPERTY_LABEL: pest or weed control at 25 ppm

Examples with their reported pest or weed control at 25 ppm follow.
>>> observed("COc1ncc(F)c(NO[Si](C)(C)C(C)(C)C)n1 [Compound 1079]")
"0 to 25%"
>>> observed("C=CCOC(=O)Nc1nc(OCc2ccccc2)ncc1F [Compound 983]")
"76 to 100%"
>>> observed("CCCNC(=O)Nc1nc(O)ncc1F [Compound 980]")
"0 to 25%"
>>> observed("C=CCOc1ncc(F)c(/N=N/c2cc(C)ccc2C)n1 [Compound 1109]")
"0 to 25%"

Task: Any idea what its pest or weed control at 25 ppm is? The molecule is CCCCCOC(=O)Nc1nc(OCc2ccc(C)cc2)ncc1F [Compound 986]
Output: 76 to 100%

* * *

# System: Mycosphaerella graminicola; Anamorph: Septoria tritici; Bayer Code SEPTTR
# MEASUREMENT_DESCRIPTION: Leaf blotch of wheat, foliar fungicide treatment, one day protectant (1DP) or three day curative (3DC)
# Assay type: in vivo, Septoria tritici on wheat plants (variety Yuma)
# REPORTED_CONDITIONS: Zymoseptoria tritici, 24 h, one day protectant (1DP), 100 ppm, rating of percent disease control, read-out: SEPTTR 1DP 100 ppm
PROPERTY_LABEL: pest or weed control at 100 ppm

>>> observed("CC(Oc1ncc(F)c(/N=C/N(C)C)n1)c1ccc(F)cc1 (stereo not shown)")
"76 to 100%"
>>> observed("Nc1nc(OCCc2ccccc2Cl)ncc1F")
"26 to 50%"
>>> observed("COc1cccc(COc2ncc(F)c(N3CCCCC3)n2)c1")
"0 to 25%"
>>> observed("Cc1nc(C)c(COc2ncc(F)c(N)n2)s1")
"76 to 100%"
>>> observed("COc1ccccc1COc1ncc(F)c(NC(=O)OCc2ccccc2)n1")
"76 to 100%"
>>> observed("CC(C)(C)OCCOc1ncc(F)c(N)n1")
"0 to 25%"
>>> observed("CCCNC(=S)Nc1nc(OCc2ccccc2OC)ncc1F")
"76 to 100%"
>>> observed("O=C(Nc1ccsc1)Nc1nc(OCCNc2ccccc2)ncc1F")
"0 to 25%"

Task: Quick one: pest or weed control at 100 ppm for `Nc1nc(Oc2ccc(Cl)c3ccccc23)ncc1F` ?
Output: 76 to 100%

Task: Note, next up: `Cc1cc(C)nc(NNc2nc(OCc3ccccc3)ncc2F)n1`
Output: 0 to 25%

* * *

Entries and their pest or weed control at 25 ppm values follow.
# Tested on: Mycosphaerella graminicola; Anamorph: Septoria tritici; Bayer Code SEPTTR
# MEASUREMENT_DESCRIPTION: Leaf blotch of wheat, foliar fungicide treatment, one day protectant (1DP) or three day curative (3DC)
# Type: in vivo, Septoria tritici on wheat plants (variety Yuma)
# REPORTED_CONDITIONS: Zymoseptoria tritici, 72 h, three day curative, 25 ppm, rating of percent disease control, read-out: SEPTTR 3DC 25 ppm

A selection of reference data follows.
>>> observed("Fc1ccc(COc2ncc(F)c(NC(=S)NCc3ccccc3F)n2)cc1")
"26 to 50%"
>>> observed("Cc1ccc(S(=O)(=O)Oc2ncc(F)c(N)n2)cc1")
"76 to 100%"
>>> observed("CCCCOc1cc(COc2ncc(F)c(N)n2)ccc1OC")
"76 to 100%"
>>> observed("Cc1ccc(CNc2nc(OCc3ccc(C)cc3)ncc2F)cc1")
"76 to 100%"
>>> observed("O=C(CCl)Nc1nc(OCc2ccc(F)cc2)ncc1F")
"76 to 100%"

Task: Fill in the blank: the reported pest or weed control at 25 ppm of `CCCNC(=O)Nc1nc(OCc2cccc(F)c2)ncc1F` is ____.
Output: 0 to 25%

Task: Try the molecule Nc1nc(OC2CCCc3cccnc32)ncc1F (stereo not shown)
Output: 0 to 25%

Task: And the next one, `CCCNC(=S)Nc1nc(OCc2ccc(OC)c(F)c2)ncc1F` ?
Output: 0 to 25%

Task: Follow-up entry: `Cc1cc(C)c(COc2ncc(F)c(N)n2)cc1C`
Output: 51 to 75%

Task: // same read-out, input: Cc1ccc(C(C)C)cc1C(C)Oc1ncc(F)c(N)n1 (stereo not shown)
Output: 76 to 100%

* * *

# Test system: Mycosphaerella graminicola; Anamorph: Septoria tritici; Bayer Code SEPTTR
# MEASUREMENT_DESCRIPTION: Leaf blotch of wheat, foliar fungicide treatment, one day protectant (1DP) or three day curative (3DC)
# Format: in vivo, Septoria tritici on wheat plants (variety Yuma)
# REPORTED_CONDITIONS: Zymoseptoria tritici, 72 h, three day curative, 25 ppm, rating of percent disease control, read-out: SEPTTR 3DC 25 ppm
// pest or weed control at 25 ppm lookup, one value per entry

Task: Bench note: what pest or weed control at 25 ppm did N#Cc1cccc(COc2ncc(F)c(NSc3ccccc3[N+](=O)[O-])n2)c1 [Compound 612] show?
Output: 76 to 100%

Task: Repeat for the following molecule: CC(=O)Nc1nc(O/N=C(\C)c2ccccc2)ncc1F [Compound 616]
Output: 76 to 100%

Task: Now try CSc1ccc(COc2ncc(F)c(N)n2)cc1 [Compound 673] .
Output: 76 to 100%

Task: Please answer likewise for COc1cccc(COc2ncc(F)c(NN3CCCCC3)n2)c1 [Compound 562]
Output: 0 to 25%

Task: Further, for CN(C)/C=N/c1nc(OC(=O)Oc2ccccc2)ncc1F [Compound 669] ?
Output: 76 to 100%

* * *

# Tested on: Mycosphaerella graminicola; Anamorph: Septoria tritici; Bayer Code SEPTTR
# MEASUREMENT_DESCRIPTION: Leaf blotch of wheat, foliar fungicide treatment, one day protectant (1DP) or three day curative (3DC)
# Assay type: in vivo, Septoria tritici on wheat plants (variety Yuma)
# REPORTED_CONDITIONS: Zymoseptoria tritici, 24 h, one day protectant (1DP), 100 ppm, rating of percent disease control, read-out: SEPTTR 1DP 100 ppm
Quick reference: pest or weed control at 100 ppm of the listed items.

Observe how each entry below is paired with its result.
>>> observed("CC[Si](CC)(CC)Nc1nc(OCCc2ccc(Cl)cc2)ncc1F")
"76 to 100%"
>>> observed("Cc1ccc(COc2ncc(F)c(N)n2)c(C)c1")
"76 to 100%"
>>> observed("Cc1ccc(COc2ncc(F)c(NC(=O)NCc3ccccc3F)n2)cc1")
"0 to 25%"
>>> observed("Fc1ccc(COc2ncc(F)c(NNc3ccccc3Cl)n2)cc1")
"76 to 100%"
>>> observed("CN1CCCC/C1=N\\c1nc(OCc2cccc(C#N)c2)ncc1F")
"76 to 100%"

Task: Please look up its pest or weed control at 100 ppm: `COc1ccccc1COc1ncc(F)c(N)n1`
Output: 76 to 100%

Task: Another: `CCCNC(=S)Nc1nc(OCc2cccs2)ncc1F`
Output: 76 to 100%

Task: Another: `O=C(Nc1ccccc1F)Nc1nc(OCc2ccccc2)ncc1F`
Output: 0 to 25%

* * *

Examples of compounds with documented pest or weed control at 75 ppm follow.
# System: Venturia inaequalis; Bayer Code VENTIN
# MEASUREMENT_DESCRIPTION: Apple scab
# Format: in vivo
# REPORTED_CONDITIONS: 24 h, % disease control rating, one day protectant, 75 ppm, read-out: VENTIN 1 DP 75 ppm

As a guide, the following entries are already answered.
>>> observed("C/C(=N\\Oc1ncc(F)c(N)n1)c1ccccc1")
"76 to 100%"
>>> observed("Nc1nc(OCc2ccc(F)cc2C(F)(F)F)ncc1F")
"51 to 75%"
>>> observed("Nc1nc(OCc2nc(Cl)ccc2Cl)ncc1F")
"26 to 50%"

Task: Which pest or weed control at 75 ppm value belongs to `COc1ccc(Oc2ncc(F)c(/N=C/N(C)C)n2)cc1` ?
Output: 26 to 50%

Task: Likewise for `COc1c(F)cccc1COc1ncc(F)c(N)n1` ?
Output: 0 to 25%

* * *

# Tested on: Venturia inaequalis; Bayer Code VENTIN
# MEASUREMENT_DESCRIPTION: Apple scab
# Assay type: in vivo
# REPORTED_CONDITIONS: 24 h, % disease control rating, one day protectant, 75 ppm, read-out: VENTIN 1 DP 75 ppm
PROPERTY_LABEL: pest or weed control at 75 ppm

# example entries with known answers
>>> observed("CC(CCOc1ncc(F)c(N)n1)c1ccccc1 (centres unmarked) [Compound 710]")
"26 to 50%"
>>> observed("Nc1nc(OCc2cc3ccccc3o2)ncc1F [Compound 554]")
"76 to 100%"
>>> observed("CNc1nc(OCc2ccc(OC)c(C(F)(F)F)c2)ncc1F [Compound 155]")
"0 to 25%"
>>> observed("CCCNC(=S)Nc1nc(OCc2ccn(C)n2)ncc1F [Compound 122]")
"76 to 100%"
>>> observed("N#CN/C=N/c1nc(OCc2ccc(F)cc2)ncc1F [Compound 23]")
"76 to 100%"
>>> observed("O=C1OC(Nc2nc(OCc3ccc(F)cc3)ncc2F)c2ccccc21 (centres unmarked) [Compound 226]")
"76 to 100%"
>>> observed("Nc1nc(OCc2ccc(-c3ccccn3)s2)ncc1F [Compound 316]")
"76 to 100%"
>>> observed("Nc1nc(OCc2csc3ccccc23)ncc1F [Compound 630]")
"76 to 100%"

Task: For Nc1nc(OCCSc2ccc(Cl)cc2)ncc1F [Compound 719] , what is its reported pest or weed control at 75 ppm?
Output: 51 to 75%

Task: Quick one: Nc1nc(OCC2CCCC2)ncc1F [Compound 370]
Output: 26 to 50%

Task: Likewise for Fc1cnc(OCc2ccc(OC(F)(F)F)cc2)nc1NCc1cccs1 [Compound 860] ?
Output: 51 to 75%
